ASSAY DETAILS: PK and tissue distribution after repeated oral administration in Ba/F3-EPOR-JAK2^V617F tumor-bearing mice
Format: in vivo
APPLIED CONDITIONS: BALB/c nude, mouse, liver, oral, 30 mg/kg; repeated; 0 h; read-out: FM concentration, Liver
QUANTITY MEASURED: concentration at 0 h (ng/g)

MOLECULE: Cc1cnc(Nc2ccc(N3CCC(N(C)CCO)CC3)c(F)c2)nc1-c1cnn(C(C)C)c1 [FM]
RECORDED RESULT: 12.9

---

ASSAY DETAILS: PK and tissue distribution after repeated oral administration in Ba/F3-EPOR-JAK2^V617F tumor-bearing mice
Type: in vivo
APPLIED CONDITIONS: BALB/c nude, mouse, kidney, oral, 30 mg/kg; repeated; 12 h; read-out: FM concentration, Kidney

STRUCTURE SMILES STRING: Cc1cnc(Nc2ccc(N3CCC(N(C)CCO)CC3)c(F)c2)nc1-c1cnn(C(C)C)c1
concentration at 12 h / ng/g: 174
